The measurements presented in this section are drawn from the RNAGym collection of RNA variant scans (doi:10.1093/molbev/msab373).

B1: Azoarcus group I ribozyme (parent)
chain: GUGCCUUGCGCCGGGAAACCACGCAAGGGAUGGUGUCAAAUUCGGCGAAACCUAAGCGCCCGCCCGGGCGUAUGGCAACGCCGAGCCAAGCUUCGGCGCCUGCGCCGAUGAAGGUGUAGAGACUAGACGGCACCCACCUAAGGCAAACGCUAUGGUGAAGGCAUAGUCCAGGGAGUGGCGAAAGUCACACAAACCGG

variants of: B1; assay: reverse-splicing fitness (ratio to wild type); higher = more active; in vitro selection; Mg2+ level not given
parameter: reverse-splicing fitness

INSERT INTO results (variantdesignation, measvalue) VALUES
  ('C82U A111C A120U A145U C150U C169A', 0.00252),
  ('A111U A120C', 0.587),
  ('C82G A120U A145G C169U U176A', 0.00419),
  ('C82A A111G A120U A145G C150G C169G U176G', 0.00316),
  ('A111G A120U A145C C150U U176G', 0.0448),
  ('C82G A111U A120G A145G C150A C169G', 0.00903),
  ('C82A A111U A120G A145G C150U C169G U176G', 0.00517),
  ('C82U A111C A120C A145U C150A C169G', 0.00745),
  ('C82A A111U A120U A145U C169U', 0.0039),
  ('C82U A111G A145U C169U U176A', 0.012),
  ('C82U A111C A120C A145U C150A U176G', 0.00561),
  ('A120U U176C', 0.678),
  ('A111G A120G A145U C169G U176C', 0.106),
  ('C82U A111C A120U A145G C150A C169U U176A', 0.00566),
  ('C82U A111U A120G A145C C150A C169A U176A', 0.0108),
  ('C82G A111U A120U C150U C169G U176A', 0.00881),
  ('C82U A120U A145C C150U C169U U176C', 0.00187),
  ('C82G A111G A120U A145U C150U C169G U176A', 0.0031),
  ('C82U A111C A120C A145U C150G C169G', 0.00628),
  ('A111U A120G A145U C150A U176G', 0.00474),
  ('A111G A120C C150A C169G U176G', 0.00513),
  ('C82G A120G A145C C150A C169U U176A', 0.0196);
